Below, each of the compounds is paired with its reported Ret value.
# Species on record: Rattus norvegicus
# TEST: Open TG-GATES - Regimen: Single
# Assay type: toxicity, organism-based, Sprague-Dawley
# Parameters: regimen Single, gender Male, age 6 weeks
# CONDITION SUMMARY: in vivo, po, 0 mg/kg, 24 h, tissue Blood, route gavage, dose level Control
Value expressed in %; do not type the unit.

Consider the reported Ret for these compounds:
* CCC1(c2ccccc2)C(=O)NC(=O)NC1=O | 7.4
* CN(C)CCC=C1c2ccccc2COc2ccccc21 [DOXEPIN] | 8.1
* OCCOCCN1CCN(C(c2ccccc2)c2ccc(Cl)cc2)CC1 (stereo unspecified) [HYDROXYZINE] | 7.1
* CC1=C(CC(=O)O)c2cc(F)ccc2/C1=C\c1ccc([S+](C)[O-])cc1 (stereo unspecified) | 7.3
* CN(C)C(=N)N=C(N)N | 8.9

Task item: Reported Ret, compound CC[C@H]1[C@@H]2C[C@H]3[C@@H]4N(C)c5ccccc5[C@]45C[C@@H]([C@@H]2[C@H]5O)N3[C@@H]1O : ____
Reply: 10.1

Task item: Reported Ret, compound ClC(Cl)(Cl)Cl [CARBON TETRACHLORIDE] : ____
Reply: 8

Task item: Reported Ret, compound O=NN(CCCl)C(=O)NC1CCCCC1 : ____
Reply: 8.8

Task item: Reported Ret, compound CC(C)N(CCC(C(N)=O)(c1ccccc1)c1ccccn1)C(C)C (stereo unspecified) [DISOPYRAMIDE] : ____
Reply: 7.9

Task item: Reported Ret, compound CCc1oc2ccccc2c1C(=O)c1cc(Br)c(O)c(Br)c1 : ____
Reply: 7.2

Task item: Reported Ret, compound O=NN1CCOCC1 : ____
Reply: 8
